# System: Canis familiaris
# protocol.notes: The prolongation effect of the atrial and ventricular effective refractory period was measured before and after the administration at 0.1 mg/kg
# Assay type: functional, Canis lupus familiaris, Cardiac atrium
# run.conditions: dose 1.0 mg/kg; in the assay text read “1.0 mg/kg” for “0.1 mg/kg”
readout.kind: ERP (%)
Numbers only, in %.

Cl.Cn1c(N2CCN(CCCOc3ccc(NS(C)(=O)=O)cc3)CC2)cc(=O)n(C)c1=O: 9.3
Cl.Cn1c(N2CCN(CCCOc3ccc(Cl)cc3)CC2)cc(=O)n(C)c1=O: 13
CO.Cl.Cn1c(N2CCN(CCCOc3cccc([N+](=O)[O-])c3)CC2)cc(=O)n(C)c1=O: 7

# ---- query molecule ----
Input line: Look at this molecule and give its reported ERP. `Cl.Cn1c(N2CCN(CCCOc3ccc(F)cc3)CC2)cc(=O)n(C)c1=O`
Output line: 5.9
